tested on: Saccharomyces cerevisiae; assay: protein stability index of tFT-peptide fusion (C-terminal peptide) (PSI (0-1 scale)); higher = more stable (slower turnover); settings: genetic background: cdc34-1; temperature: 37 C;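 also: PSI is a weighted mean of sequencing reads over stability bins, variants kept only with over 10 reads, mCherry proximal and sfGFP distal, peptide attached via GGGS linker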
The reader will find reported protein stability index values listed item by item below.
Give only the figure.

Example entries and their recorded answers appear below.
>  <biopolymer sequence>
NYVVFVRGIKIT

>  <protein stability index>
0.585

$$$$
>  <biopolymer sequence>
DWTVSYLWVTAL

>  <protein stability index>
0.534

$$$$
>  <biopolymer sequence>
GRSVGVTMFKNG

>  <protein stability index>
0.614

$$$$
>  <biopolymer sequence>
VVTFCCARVTKI

>  <protein stability index>
0.665

$$$$

// protein stability index lookup, sequence = "MALAVRVVPCGA" , result: 0.373

// protein stability index lookup, sequence = "LLYYMPELLILT" , result: 0.152

// protein stability index lookup, sequence = "FFFVFLGLRSVF" , result: 0.348

// protein stability index lookup, sequence = "DAIVLGSVVVCR" , result: 0.515

// protein stability index lookup, sequence = "DLAWAIGRLTKG" , result: 0.72

// protein stability index lookup, sequence = "KIRGYLMPLTLL" , result: 0.56

// protein stability index lookup, sequence = "FLTSPSVWRYLF" , result: 0.623

// protein stability index lookup, sequence = "KERHRNKRKQIA" , result: 0.659
